These measurements were taken from the supplement of paper PMC11061612.

- System: CW-2 (Colorectal Carcinoma)
- EXPERIMENT_DESCRIPTION: combination Emax (second highest fraction inhibited in the dose matrix, 72 h); higher = more inhibition; extreme values may be limits of the assay
READOUT_NAME: combination Emax
// print number alone

Sample Cn1cnc2c(F)c(Nc3ccc(Br)cc3Cl)c(C(=O)NOCCO)cc21 [Selumetinib] + C[C@@H]1COCCN1C2=NC(=NC(=C2)C3(CC3)[S@](=N)(=O)C)C4=C5C=CNC5=NC=C4 [AZD6738] (first compound max 10 µM, 7x7, partner max 10 µM) — what was its combination Emax?
0.501

Sample C[C@@H](c1ccc2nccn2c1)n1nnc2ncc(-c3cnn(C)c3)nc21 [Savolitinib] + CC1(C)CCC(CN2CCN(c3ccc(C(=O)NS(=O)(=O)c4ccc(NCC5CCOCC5)c([N+](=O)[O-])c4)c(Oc4cnc5[nH]ccc5c4)c3)CC2)=C(c2ccc(Cl)cc2)C1 [Venetoclax] (first compound max 1 µM, 7x7, partner max 1 µM) — what was its combination Emax?
0.117

Sample CC(=O)Nc1cccc(-n2c(=O)n(C3CC3)c(=O)c3c(Nc4ccc(I)cc4F)n(C)c(=O)c(C)c32)c1 [Trametinib] + Cc1nc(-c2cn3c(n2)-c2ccc(-c4cnn(C(C)(C)C(N)=O)c4)cc2OCC3)n(C(C)C)n1 [Taselisib] (first compound max 1 µM, 7x7, partner max 10 µM) — what was its combination Emax?
0.565

Sample CN(CCO)CC[C@H](CSc1ccccc1)Nc1ccc(S(=O)(=O)NC(=O)c2ccc(N3CCC([C@@H](O)c4ccccc4-c4ccc(Cl)cc4)CC3)cc2)cc1S(=O)(=O)C(F)(F)F [AZD4320] + CN(C)CCCOc1ccc(-c2ccc3ncc4c(c3c2)n(C2CCOCC2)c(=O)n4C)cn1 [AZD0156] (first compound max 1 µM, 7x7, partner max 1 µM) — what was its combination Emax?
0.136

Sample CN(CCO)CC[C@H](CSc1ccccc1)Nc1ccc(S(=O)(=O)NC(=O)c2ccc(N3CCC([C@@H](O)c4ccccc4-c4ccc(Cl)cc4)CC3)cc2)cc1S(=O)(=O)C(F)(F)F [AZD4320] + CC(=O)O[C@H]1C(=O)[C@@]2(C)[C@H]([C@H](OC(=O)c3ccccc3)[C@]3(O)C[C@H](OC(=O)[C@H](O)[C@@H](NC(=O)c4ccccc4)c4ccccc4)C(C)=C1C3(C)C)[C@]1(OC(C)=O)CO[C@@H]1C[C@@H]2O [Paclitaxel] (first compound max 1 µM, 7x7, partner max 3 µM) — what was its combination Emax?
0.608

Sample Cc1nc(-c2cn3c(n2)-c2ccc(-c4cnn(C(C)(C)C(N)=O)c4)cc2OCC3)n(C(C)C)n1 [Taselisib] + O=C(Nc1ccc2[nH]nc(-c3ccncc3)c2c1)[C@@H]1CCN(CC(=O)N2CCN(c3ccc(-c4ncccn4)cc3)CC2)C1 [SCH772984] (first compound max 10 µM, 7x7, partner max 5 µM) — what was its combination Emax?
0.546

Sample CC1(C)CCC(CN2CCN(c3ccc(C(=O)NS(=O)(=O)c4ccc(NCC5CCOCC5)c([N+](=O)[O-])c4)c(Oc4cnc5[nH]ccc5c4)c3)CC2)=C(c2ccc(Cl)cc2)C1 [Venetoclax] + CS(=O)(=O)CCNCc1ccc(-c2ccc3ncnc(Nc4ccc(OCc5cccc(F)c5)c(Cl)c4)c3c2)o1 [Lapatinib] (first compound max 1 µM, 7x7, partner max 10 µM) — what was its combination Emax?
0.379

Sample COc1cccc(OCCCN)c1-c1cc(Nc2cnc(C#N)cn2)n[nH]1 [Prexasertib] + Cc1cc2ncnn2cc1Nc1ncc2c(n1)n(C1CCOCC1)c(=O)n2C [AZD7648] (first compound max 1 µM, 7x7, partner max 10 µM) — what was its combination Emax?
0.474

Sample CCc1c2c(nc3ccc(O)cc13)-c1cc3c(c(=O)n1C2)COC(=O)[C@]3(O)CC [SN-38] + CN(C)CCCOc1ccc(-c2ccc3ncc4c(c3c2)n(C2CCOCC2)c(=O)n4C)cn1 [AZD0156] (first compound max 0.3 µM, 7x7, partner max 1 µM) — what was its combination Emax?
0.624

Sample Cc1c2c(nn1C)CSCc1cc(n(C)n1)CSc1cc(c3ccccc3c1)OCCCc1c(C(=O)O)n(C)c3c-2c(Cl)ccc13 [AZD5991] + C=CCn1c(=O)c2cnc(Nc3ccc(N4CCN(C)CC4)cc3)nc2n1-c1cccc(C(C)(C)O)n1 [AZD1775] (first compound max 1 µM, partner max 1 µM) — what was its combination Emax?
0.402

Sample C[C@@H]1COCCN1c1cc(C2([S@](C)(=N)=O)CC2)nc(-c2ccnc3[nH]ccc23)n1 [AZD6738] + C1CC(C1)(C(=O)[O-])C(=O)[O-].N.N.[Pt+2] [Carboplatin] (first compound max 10 µM, 7x7, partner max 10 µM) — what was its combination Emax?
0.537

Sample CC1(C)CCC(CN2CCN(c3ccc(C(=O)NS(=O)(=O)c4ccc(NCC5CCOCC5)c([N+](=O)[O-])c4)c(Oc4cnc5[nH]ccc5c4)c3)CC2)=C(c2ccc(Cl)cc2)C1 [Venetoclax] + C=CCn1c(=O)c2cnc(Nc3ccc(N4CCN(C)CC4)cc3)nc2n1-c1cccc(C(C)(C)O)n1 [AZD1775] (first compound max 1 µM, partner max 1 µM) — what was its combination Emax?
0.311

====

- Tested on: NCI-H526 (Small Cell Lung Carcinoma);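 note: after 72 h of two-drug dosing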
- EXPERIMENT_DESCRIPTION: Bliss excess, mean over the matrix (fraction); higher = more synergy
Listed here: items and their measured Bliss excess.
// print number alone

These solved cases illustrate the format of a correct answer.
INSERT INTO assay_data (compound, readout_name, observed_value) VALUES
  ('CS(=O)(=O)CCNCc1ccc(-c2ccc3ncnc(Nc4ccc(OCc5cccc(F)c5)c(Cl)c4)c3c2)o1 [Lapatinib] + Cn1cnc2c(F)c(Nc3ccc(Br)cc3Cl)c(C(=O)NOCCO)cc21 [Selumetinib] (first compound max 10 µM, 7x7, partner max 10 µM)', 'Bliss excess', 0.0154),
  ('Cc1cc2ncnn2cc1Nc1ncc2c(n1)n(C1CCOCC1)c(=O)n2C [AZD7648] + C[C@@H]1COCCN1C2=NC(=NC(=C2)C3(CC3)[S@](=N)(=O)C)C4=C5C=CNC5=NC=C4 [AZD6738] (first compound max 10 µM, 7x7, partner max 10 µM)', 'Bliss excess', 0.0174),
  ('COc1nnc2ccc(N3CCC(c4ccc(OCCN5CCN(C)C(=O)[C@H]5C)cc4)CC3)nn12 [AZD5153] + CC1(C)CCC(CN2CCN(c3ccc(C(=O)NS(=O)(=O)c4ccc(NCC5CCOCC5)c([N+](=O)[O-])c4)c(Oc4cnc5[nH]ccc5c4)c3)CC2)=C(c2ccc(Cl)cc2)C1 [Venetoclax] (first compound max 1 µM, 7x7, partner max 1 µM)', 'Bliss excess', 0.0192);

Sample CC1(C)CCC(CN2CCN(c3ccc(C(=O)NS(=O)(=O)c4ccc(NCC5CCOCC5)c([N+](=O)[O-])c4)c(Oc4cnc5[nH]ccc5c4)c3)CC2)=C(c2ccc(Cl)cc2)C1 [Venetoclax] + CCN(CCO)CCCOc1ccc2c(Nc3cc(CC(=O)Nc4cccc(F)c4)[nH]n3)ncnc2c1 [AZD2811] (first compound max 1 µM, 7x7, partner max 1 µM) — what was its Bliss excess?
0.138

Sample Cc1c2c(nn1C)CSCc1cc(n(C)n1)CSc1cc(c3ccccc3c1)OCCCc1c(C(=O)O)n(C)c3c-2c(Cl)ccc13 [AZD5991] + Nc1ccn([C@@H]2O[C@H](CO)[C@@H](O)C2(F)F)c(=O)n1 [Gemcitabine] (first compound max 1 µM, 7x7, partner max 0.3 µM) — what was its Bliss excess?
0.0249

Sample CN(CCO)CC[C@H](CSc1ccccc1)Nc1ccc(S(=O)(=O)NC(=O)c2ccc(N3CCC([C@@H](O)c4ccccc4-c4ccc(Cl)cc4)CC3)cc2)cc1S(=O)(=O)C(F)(F)F [AZD4320] + C[C@@H](Nc1cc(F)cc(F)c1)c1cc(C(=O)N(C)C)cc2c(=O)cc(N3CCOCC3)oc12 [AZD8186] (first compound max 1 µM, 7x7, partner max 3 µM) — what was its Bliss excess?
0.0434

====

Listed here: items and their measured combination Emax.
- System: KU812 (Chronic Myelogenous Leukemia)
- EXPERIMENT_DESCRIPTION: combination Emax (second highest fraction inhibited in the dose matrix, 72 h); higher = more inhibition; extreme values may be limits of the assay
// print number alone

INSERT INTO results (compound, observed_value) VALUES
  ('CC1(C)CCC(CN2CCN(c3ccc(C(=O)NS(=O)(=O)c4ccc(NCC5CCOCC5)c([N+](=O)[O-])c4)c(Oc4cnc5[nH]ccc5c4)c3)CC2)=C(c2ccc(Cl)cc2)C1 [Venetoclax] + COc1cc(Nc2ncc3c(n2)-c2ccc(Cl)cc2C(c2c(F)cccc2OC)=NC3)ccc1C(=O)O [Alisertib] (first compound max 1 µM, 7x7, partner max 10 µM)', 0.838),
  ('COc1nnc2ccc(N3CCC(c4ccc(OCCN5CCN(C)C(=O)[C@H]5C)cc4)CC3)nn12 [AZD5153] + C[C@@H]1COCCN1C2=NC(=NC(=C2)C3(CC3)[S@](=N)(=O)C)C4=C5C=CNC5=NC=C4 [AZD6738] (first compound max 1 µM, 7x7, partner max 10 µM)', 0.963);

Turning now to a further record.
Sample CC(=O)c1c(C)c2cnc(Nc3ccc(N4CCNCC4)cn3)nc2n(C2CCCC2)c1=O [Palbociclib] + Cn1cnc2c(F)c(Nc3ccc(Br)cc3Cl)c(C(=O)NOCCO)cc21 [Selumetinib] (first compound max 10 µM, 7x7, partner max 10 µM) — what was its combination Emax?
0.904
